Test: aggregation and purification amounts of deglycosylated antibodies, before and after φ
Format: physicochemical
Conditions: based on 100 ml culture
Task for the reader: assign each of the following molecules its reported Fraction1, After φ.
Write it as a number; the unit mg goes unstated.

Given Deglyco-C3: deglycosylated clone 1 IgG; light chain CDR1 TGSSSNIGWSNVT (SEQ ID NO: 4) (antibody, V domains shown) VH: EVQLVESGGGLVQPGGSLRLSCAVSGFTFSGYDMSWIRQAPGKGLEWVAGIYPDGGNTYYADSVKGRFTISRDDSKNTFYLQMNSLRAEDTAVYYCARGATWWVLGPFDYWGQGTLVTVSS VL: DIQLTQSPSSLSASVGDRVTITCTGSSSNIGWSNVTWYQQKPGKAPKLLIYADSHRPSGVPSRFSGSGSGTDFTLTISSLQPEDFATYYCGAWDDSLSGYVFGQGTKVEIKR , state its recorded Fraction1, After φ. 0.012

So what does the record say about Fraction1, After φ for Deglyco-C2: deglycosylated clone 1 IgG; light chain CDR1 TGSSSNIGATAVT (SEQ ID NO: 3) (antibody, V domains shown) VH: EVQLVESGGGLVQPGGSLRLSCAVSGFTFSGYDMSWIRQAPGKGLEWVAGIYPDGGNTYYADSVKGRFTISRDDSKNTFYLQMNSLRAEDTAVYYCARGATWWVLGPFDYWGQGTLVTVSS VL: DIQLTQSPSSLSASVGDRVTITCTGSSSNIGATAVTWYQQKPGKAPKLLIYADSHRPSGVPSRFSGSGSGTDFTLTISSLQPEDFATYYCGAWDDSLSGYVFGQGTKVEIKR ? 0.018

Which Fraction1, After φ is listed for deglyco C1 IgG: deglycosylated clone 1 IgG; light chain CDR1 TGSSSNIGRCGVT (SEQ ID NO: 2), N32R/N33C/S34G (antibody, V domains shown) VH: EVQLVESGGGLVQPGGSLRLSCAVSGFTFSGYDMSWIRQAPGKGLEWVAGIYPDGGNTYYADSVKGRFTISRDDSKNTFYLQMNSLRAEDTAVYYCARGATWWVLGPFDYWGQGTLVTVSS VL: DIQLTQSPSSLSASVGDRVTITCTGSSSNIGRCGVTWYQQKPGKAPKLLIYADSHRPSGVPSRFSGSGSGTDFTLTISSLQPEDFATYYCGAWDDSLSGYVFGQGTKVEIKR ? 0.009
